Data credit: ChEMBL document CHEMBL1961873

Recorded measurements of inhibition, one per entry
TARGET: Maternal embryonic leucine zipper kinase (Homo sapiens) (UniProt Q14680);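 further: reported figure is the mean percent inhibition of MELK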
Sequence (Q14680 whole entry, looked up): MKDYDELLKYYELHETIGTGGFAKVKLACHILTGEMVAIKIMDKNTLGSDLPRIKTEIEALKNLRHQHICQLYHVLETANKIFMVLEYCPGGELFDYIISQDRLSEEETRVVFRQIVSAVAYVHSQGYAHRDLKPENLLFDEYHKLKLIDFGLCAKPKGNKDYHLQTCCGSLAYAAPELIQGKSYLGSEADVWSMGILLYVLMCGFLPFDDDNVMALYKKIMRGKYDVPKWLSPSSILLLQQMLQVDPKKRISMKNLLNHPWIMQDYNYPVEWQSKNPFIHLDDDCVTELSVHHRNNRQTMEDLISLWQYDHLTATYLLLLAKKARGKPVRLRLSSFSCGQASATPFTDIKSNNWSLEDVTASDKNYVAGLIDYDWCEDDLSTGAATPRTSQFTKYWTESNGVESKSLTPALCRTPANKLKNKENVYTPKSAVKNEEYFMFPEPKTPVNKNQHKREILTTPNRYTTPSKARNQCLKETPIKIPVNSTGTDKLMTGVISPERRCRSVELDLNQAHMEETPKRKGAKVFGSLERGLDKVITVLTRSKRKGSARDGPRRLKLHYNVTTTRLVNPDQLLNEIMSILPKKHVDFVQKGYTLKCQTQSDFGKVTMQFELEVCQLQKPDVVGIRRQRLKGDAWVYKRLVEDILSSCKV
MEASUREMENT CONTEXT: at 0.1 µM
OBSERVATION TYPE: inhibition (%)

>>> assay_value("CCOc1ccc2c(-c3ccnc(Nc4cccc(C(F)(F)F)c4)n3)cnn2n1")
1.46
>>> assay_value("CC(C)(CO)CNC(=O)c1ccc2c(c1)/C(=N/Nc1ccc(S(N)(=O)=O)cc1)C(=O)N2")
18.8
>>> assay_value("CCN(CC)S(=O)(=O)c1ccc(OC)c(Nc2ncc(-c3ccccc3)o2)c1")
-0.34
>>> assay_value("COc1cc(Nc2nccc(Nc3ccc4c(C)n[nH]c4c3)n2)cc(OC)c1OC")
3.21
>>> assay_value("Cc1cccc(Nc2ncc(-c3ccccc3)o2)c1")
3.78
>>> assay_value("[O-][S+]1CCN(Cc2ccc(-c3ccc4ncnc(Nc5ccc(OCc6cccc(F)c6)c(Cl)c5)c4c3)o2)CC1")
7.16
>>> assay_value("CCn1c(-c2nonc2N)nc2ccccc21")
1.29
>>> assay_value("Cc1ccc2c(-c3ccnc(Nc4ccccc4)n3)c(-c3ccc(F)cc3)nn2n1")
1.41
>>> assay_value("COc1ccc2c(-c3ccnc(Nc4cccc(OC(F)(F)F)c4)n3)cnn2n1")
1.72
>>> assay_value("Nc1nc(-c2ccc(F)cc2)c(-c2ccc3ncccc3n2)s1")
4.85
>>> assay_value("O=S(=O)(CCNCc1ccc(-c2ccc3ncnc(Nc4ccc(OCc5cccc(F)c5)c(Cl)c4)c3c2)o1)c1ccccc1")
5.2
>>> assay_value("CCNC(=O)O[C@H]1CN[C@H](C#Cc2cc3ncnc(Nc4ccc(OCc5cccc(F)c5)c(Cl)c4)c3s2)C1")
4.18
>>> assay_value("COc1ccc(CNC(=O)c2ccc(-c3cc(-c4nnc(C)o4)ccc3C)cc2)cc1")
0.76
>>> assay_value("COc1ccc(-c2cc(-c3c[nH]nc3-c3ccccn3)ccn2)cc1")
3.77
>>> assay_value("Nc1nc(-c2cccc(Cl)c2)c(-c2ccc3ncccc3n2)s1")
4.19
>>> assay_value("Fc1ccc(-c2nn3ccccc3c2-c2ccncc2)cc1")
3.07
>>> assay_value("Fc1ccc(-c2cc(-c3c[nH]nc3-c3ccccn3)ccn2)cc1")
0.52
>>> assay_value("Cc1ccc(O)cc1Nc1ccnc2cc(-c3ccccn3)ccc12")
1.72
>>> assay_value("CCn1c(-c2nonc2N)nc2cnc(Oc3cccc(NC(=O)c4ccc(N(C)C)cc4)c3)cc21")
8.41
>>> assay_value("N#Cc1c(NC(=O)c2ccc(F)cc2)sc2c1CCCC2")
0.18
>>> assay_value("CNC(=O)c1cccc(C#Cc2cncnc2Nc2ccc(OCc3cccc(F)c3)c(Cl)c2)c1")
-3.3
